- protocol: Olmesartan blood concentration/AUC after 7-day versus single-day dosing
- Type: in vivo, Korean healthy males
- experimental parameters: male, human, blood, oral, 40 mg, Time 1.5 hrs; dosing every 24 hours for 7 days; read-out: Blood concentration (ng/mL)/Compliance-7X
endpoint name: concentration at 1.5 h (ng/mL)
Numbers only here, please. The scale is ng/mL.

query: Could you tell me which concentration at 1.5 h is on file for CCCc1nc(C(C)(C)O)c(C(=O)O)n1Cc1ccc(-c2ccccc2-c2nnn[nH]2)cc1 [olmesartan] ?
result: 1060

---

- protocol: Olmesartan blood concentration/AUC after 7-day versus single-day dosing
- Format: in vivo, Korean healthy males
- experimental parameters: male, human, blood, oral, Time 6 hrs; drug taken only one day; read-out: Blood concentration (ng/mL)/Non-Compliance-1X
endpoint name: concentration at 6 h (ng/mL)
Numbers only here, please. The scale is ng/mL.

query: Could you tell me which concentration at 6 h is on file for CCCc1nc(C(C)(C)O)c(C(=O)O)n1Cc1ccc(-c2ccccc2-c2nnn[nH]2)cc1 [olmesartan] ?
result: 452
